- assayed system: PGI2 receptor (Homo sapiens)
- Construct: 300 μg of platelet plasma membranes; from tissue; host or cells: human platelets (plasma membranes)
- Sequence (P43119 whole entry): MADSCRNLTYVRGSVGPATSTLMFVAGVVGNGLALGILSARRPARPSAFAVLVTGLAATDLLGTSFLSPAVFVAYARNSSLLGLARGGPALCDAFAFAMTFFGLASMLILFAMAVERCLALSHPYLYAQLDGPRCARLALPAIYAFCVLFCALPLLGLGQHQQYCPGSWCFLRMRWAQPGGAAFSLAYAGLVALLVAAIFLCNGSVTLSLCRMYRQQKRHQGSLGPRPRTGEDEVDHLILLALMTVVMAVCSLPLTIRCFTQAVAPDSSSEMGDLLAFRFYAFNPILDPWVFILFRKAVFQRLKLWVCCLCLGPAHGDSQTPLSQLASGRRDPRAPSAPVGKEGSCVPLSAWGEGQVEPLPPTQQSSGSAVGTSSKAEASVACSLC
- experimental details: Inhibitory activity against 3H-iloprost binding onto PGI2 receptor in human platelet membrane fraction
- protocol conditions: inhibition of 10 nM [3H]-iloprost specific binding; human platelet membranes 300 μg; 24° C., 30 min; pH 7.4
As shown below, each of these compounds has a reported log10(IC50) value.
readout kind: log10(IC50) (log10 of the value in µM)

1. CC(CC1CCc2c(cccc2OCC(=O)O)C1)=NOC(c1ccccc1)c1ccccc1 (stereo not drawn) | -0.55
2. CC(CC1CCc2c(cccc2OCC(=O)O)C1)=NOCc1ccccc1 (stereo not drawn) | 0.15
3. CCC(CC1CCc2c(cccc2OCC(=O)O)C1)=NOC(c1ccccc1)c1ccccc1 (stereo not drawn) | -0.57
4. O=C(O)COc1cccc2c1CCC(CCNOC(c1ccccc1)c1ccccc1)C2 (stereo not drawn) | 0.60
5. CC(C)C(CC1CCc2c(cccc2OCC(=O)O)C1)=NOC(c1ccccc1)c1ccccc1 (stereo not drawn) | 0.36
6. CC(CC1CCc2c(cccc2OCC(=O)O)C1)=NOC(c1ccc(F)cc1)c1ccc(F)cc1 (stereo not drawn) [6(e)] | -0.32
7. CC(CC1CCc2c(cccc2OCC(=O)O)C1)=NOC(c1ccccc1)c1ccc([N+](=O)[O-])cc1 (stereo not drawn) | 0.00
8. CC(CC1CCc2c(cccc2OCC(=O)O)C1)=NOC(c1ccccc1)c1ccncc1 (stereo not drawn) | -0.15
9. O=C(O)COc1cccc2c1CCC2CC=NOC(c1ccccc1)c1ccccc1 (stereo not drawn) [3(e)] | 0.56
10. COc1ccc(C(ON=C(C)CC2CCc3c(cccc3OCC(=O)O)C2)c2ccc(OC)cc2)cc1 (stereo not drawn) | 0.26
11. CC(CC1CCc2c(cccc2OCC(=O)O)C1)=NOC(c1ccccc1)C1CCCCC1 (stereo not drawn) [6(s)] | 0.98
12. O=C(O)COc1cccc2c1CCC(CC(=NOC(c1ccccc1)c1ccccc1)c1ccccc1)C2 (stereo not drawn) | 0.45
13. CCOC(=O)COc1cccc2c1CCC(CC(C)=NOC(c1ccccc1)c1ccccc1)C2 (stereo not drawn) | 0.85
14. CC(CC1CCc2c(cccc2OCC(=O)O)C1)=NOC(c1ccccc1)c1cccnc1 (stereo not drawn) | 0.11
15. CCCC(CC1CCc2c(cccc2OCC(=O)O)C1)=NOC(c1ccccc1)c1ccccc1 (stereo not drawn) | -0.57
16. CC(CC1CCc2c(cccc2OCC(=O)O)C1)=NOC(c1ccccc1)c1ccccn1 (stereo not drawn) | 0.26
17. O=C(O)COc1cccc2c1CCCC(C=NOC(c1ccccc1)c1ccccc1)C2 (stereo not drawn) | 0.28
18. CC(CC1CCc2c(cccc2OCC(=O)O)C1)=NOC(c1ccccc1)c1ccc(Cl)cc1 (stereo not drawn) | -0.52

---

- assayed system: PGI2 receptor (Homo sapiens)
- Construct: 300 μg of platelet plasma membranes
- experimental details: Inhibitory activity against 3H-iloprost binding onto PGI2 receptor in human platelet membrane fraction
- protocol conditions: inhibition of 10 nM [3H]-iloprost specific binding; human platelet membranes 300 μg; 24° C., 30 min; pH 7.4
pIC50: −log10 of the molar value.
readout kind: pIC50

1) O=C(O)COc1cccc2c1CCC(CC=NOC(c1ccccc1)c1ccccc1)C2 (stereo not shown) [Example 3] | 6.05
2) O=C(O)COc1cccc2c1CCC(CCC=NOC(c1ccccc1)c1ccccc1)C2 (stereo not shown) [Example 4] | 5.60
3) CCCCCC(ON=C(C)CC1CCc2c(cccc2OCC(=O)O)C1)c1ccccc1 (stereo not shown) [6(r)] | 5.57
4) O=C(O)COc1cccc2c1CCCC2CC=NOC(c1ccccc1)c1ccccc1 (stereo not shown) [3(a)] | 5.27
